Listing: MIC of selected molecules
Test system: P. aeruginosa PAE 1001
procedure-details: In vitro antibacterial activity (MIC), P. aeruginosa
Format: cell-based
condition-details: Pseudomonas aeruginosa, PAE1001

Completed entries (count: 2):
INSERT INTO measurements (molecule, val) VALUES
  ('CC(C)C(=O)OC[C@H](COc1cccc2c1B(O)O[C@@H]2CN)OC(=O)C(C)C.Cl', '> 32 µg/mL'),
  ('CC(=O)OC[C@H](COc1cccc2c1B(O)O[C@@H]2CN)OC(C)=O.Cl', '> 32 µg/mL');

The molecule Cl.NC[C@H]1OB2O[C@H](CO)COC3C=CC=C1C23 (stereo partly drawn) [Example 5, reference compound] showed MIC equal to 2 µg/mL

The molecule `CCC(=O)OC[C@@H]1COc2cccc3c2B(O1)O[C@@H]3CN.Cl` showed MIC equal to > 32 µg/mL

The molecule `CC(C)C(=O)OC[C@@H]1COc2cccc3c2B(O1)O[C@@H]3CN.Cl` showed MIC equal to > 32 µg/mL

The molecule `CC(C)(C)C(=O)OC[C@H](COc1cccc2c1B(O)O[C@@H]2CN)OC(=O)C(C)(C)C.Cl` showed MIC equal to > 32 µg/mL

// data source = patent US20240279247A1
